target: mutant LRRK2 (G2019S) (Homo sapiens, UniProt Q5S007, G2019S); construct: DNA tag for qPCR detection (not a peptide; the protein part that carries it is not described); made in house; host or cells: HEK 293 cells (the same paragraph also describes T7 phage grown in E. coli BL21); assay: Inhibitory activity against LRRK2: competition binding to ligand-affinity beads, DNA-tagged kinase quantitated by qPCR; details: 100 nM compound; % of ctrl; read-out: Remaining kinase activity(%) at 100 nM LRRK2(G2019Smutant)
Sequence (Q5S007 970-2527 G2019S): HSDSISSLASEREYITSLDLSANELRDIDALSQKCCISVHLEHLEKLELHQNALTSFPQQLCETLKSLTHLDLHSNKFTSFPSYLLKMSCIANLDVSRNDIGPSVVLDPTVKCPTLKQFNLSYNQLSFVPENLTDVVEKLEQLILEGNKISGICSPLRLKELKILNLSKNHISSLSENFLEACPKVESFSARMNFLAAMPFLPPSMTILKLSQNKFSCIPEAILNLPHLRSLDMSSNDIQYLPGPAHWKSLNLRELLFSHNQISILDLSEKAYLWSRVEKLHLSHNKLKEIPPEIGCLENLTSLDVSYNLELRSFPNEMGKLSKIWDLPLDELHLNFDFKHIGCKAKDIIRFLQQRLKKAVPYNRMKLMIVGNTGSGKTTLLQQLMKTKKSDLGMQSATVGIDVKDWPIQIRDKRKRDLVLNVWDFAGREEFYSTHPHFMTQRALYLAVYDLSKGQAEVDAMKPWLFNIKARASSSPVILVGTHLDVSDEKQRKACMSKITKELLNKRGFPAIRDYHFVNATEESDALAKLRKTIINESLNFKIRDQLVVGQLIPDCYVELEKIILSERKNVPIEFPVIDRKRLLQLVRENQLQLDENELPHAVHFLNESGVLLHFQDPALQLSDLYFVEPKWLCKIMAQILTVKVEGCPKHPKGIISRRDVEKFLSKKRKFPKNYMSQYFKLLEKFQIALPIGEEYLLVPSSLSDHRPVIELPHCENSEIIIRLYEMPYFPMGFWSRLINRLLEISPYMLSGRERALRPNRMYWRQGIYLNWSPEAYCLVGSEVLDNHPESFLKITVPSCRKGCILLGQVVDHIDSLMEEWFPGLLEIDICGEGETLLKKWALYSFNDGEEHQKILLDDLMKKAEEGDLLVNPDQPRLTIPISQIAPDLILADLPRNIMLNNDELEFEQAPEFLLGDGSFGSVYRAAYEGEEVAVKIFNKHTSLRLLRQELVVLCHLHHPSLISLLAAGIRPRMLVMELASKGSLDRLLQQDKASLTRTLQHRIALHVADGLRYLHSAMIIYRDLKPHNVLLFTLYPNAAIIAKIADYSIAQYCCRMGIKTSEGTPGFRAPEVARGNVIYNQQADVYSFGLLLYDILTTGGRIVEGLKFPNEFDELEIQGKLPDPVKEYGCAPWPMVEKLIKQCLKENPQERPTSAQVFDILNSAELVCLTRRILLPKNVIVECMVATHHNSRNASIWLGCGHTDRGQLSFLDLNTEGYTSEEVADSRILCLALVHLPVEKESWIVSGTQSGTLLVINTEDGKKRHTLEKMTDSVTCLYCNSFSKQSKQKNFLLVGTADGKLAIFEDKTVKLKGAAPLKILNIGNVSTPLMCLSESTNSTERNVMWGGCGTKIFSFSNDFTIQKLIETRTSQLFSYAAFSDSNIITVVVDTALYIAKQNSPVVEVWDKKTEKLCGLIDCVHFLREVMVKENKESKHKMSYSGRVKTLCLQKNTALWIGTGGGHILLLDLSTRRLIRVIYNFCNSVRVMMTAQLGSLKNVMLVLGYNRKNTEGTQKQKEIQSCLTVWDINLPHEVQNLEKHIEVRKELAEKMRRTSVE
measured parameter: remaining binding at 0.1 µM

**Query** What value of remaining binding at 0.1 µM has been reported for the following molecule? COc1cc(C(=O)N2CCOCC2)ccc1Nc1ncc(Cl)c(-c2cnn(C(C)CC#N)c2)n1 (stereo not shown)
**Result** < 10%

**Query** What value of remaining binding at 0.1 µM has been reported for the following molecule? COc1cc(C(=O)N2CCOCC2)ccc1Nc1ncc(Cl)c(-c2cnn(C(C)C)c2)n1
**Result** < 10%

**Query** What value of remaining binding at 0.1 µM has been reported for the following molecule? CCn1cc(-c2nc(Nc3ccc(C(=O)N4CCOCC4)cc3OC)ncc2Cl)cn1
**Result** < 10%

**Query** What value of remaining binding at 0.1 µM has been reported for the following molecule? COc1cc(C(=O)N2CCCC2)ccc1Nc1ncc(Cl)c(-c2cnn(C)c2)n1
**Result** < 50%

**Query** What value of remaining binding at 0.1 µM has been reported for the following molecule? CCCn1cc(-c2nc(Nc3ccc(C(=O)N4CCOCC4)cc3OC)ncc2Cl)cn1
**Result** < 10%

**Query** What value of remaining binding at 0.1 µM has been reported for the following molecule? COc1cc(C(=O)N2CCOCC2)ccc1Nc1ncc(Cl)c(-c2cnn(CC#N)c2)n1
**Result** < 30%

**Query** What value of remaining binding at 0.1 µM has been reported for the following molecule? CCN(CCOC)C(=O)c1ccc(Nc2ncc(Cl)c(-c3cnn(C)c3)n2)c(OC)c1
**Result** < 50%

**Query** What value of remaining binding at 0.1 µM has been reported for the following molecule? COCn1cc(-c2nc(Nc3ccc(C(=O)N4CCOCC4)cc3OC)ncc2Cl)cn1
**Result** < 10%

**Query** What value of remaining binding at 0.1 µM has been reported for the following molecule? COc1cc(C(=O)N2CCOCC2)ccc1Nc1ncc(C(F)(F)F)c(-c2cnn(C3CCOCC3)c2)n1
**Result** < 30%

**Query** What value of remaining binding at 0.1 µM has been reported for the following molecule? COCCn1cc(-c2nc(Nc3ccc(C(=O)N4CCOCC4)cc3OC)ncc2Cl)cn1
**Result** < 30%

**Query** What value of remaining binding at 0.1 µM has been reported for the following molecule? COc1cc(C(=O)N2CCC(F)(F)CC2)ccc1Nc1ncc(Cl)c(-c2cnn(C)c2)n1
**Result** < 50%

**Query** What value of remaining binding at 0.1 µM has been reported for the following molecule? COc1cc(C(=O)N2CCOCC2)ccc1Nc1ncc(Cl)c(-c2cccnc2)n1 [Comparative Compound 2, reference compound]
**Result** ≥ 50%

**Query** What value of remaining binding at 0.1 µM has been reported for the following molecule? COc1cc(C(=O)NC(C)(C)C)ccc1Nc1ncc(Cl)c(-c2cnn(C)c2)n1
**Result** < 50%

**Query** What value of remaining binding at 0.1 µM has been reported for the following molecule? COc1cc(C(=O)N2CCOCC2)ccc1Nc1ncc(Cl)c(-c2cccc([N+](=O)[O-])c2)n1 [Comparative Compound 3, reference compound]
**Result** ≥ 50%

**Query** What value of remaining binding at 0.1 µM has been reported for the following molecule? COc1cc(C(=O)N2CC(N3CCOCC3)C2)ccc1Nc1ncc(Cl)c(-c2cnn(C)c2)n1
**Result** < 30%

**Query** What value of remaining binding at 0.1 µM has been reported for the following molecule? COc1cc(C(=O)N2CCN(C(C)=O)CC2)ccc1Nc1ncc(Cl)c(-c2cnn(C)c2)n1
**Result** < 30%

**Query** What value of remaining binding at 0.1 µM has been reported for the following molecule? COc1cc(C(=O)N2CCOCC2)c(F)cc1Nc1ncc(Cl)c(-c2cnn(C(C)C)c2)n1
**Result** < 10%

**Query** What value of remaining binding at 0.1 µM has been reported for the following molecule? COc1cc(C(=O)N2CCOCC2)ccc1Nc1ncc(Cl)c(-c2ccccc2)n1 [Comparative Compound 1, reference compound]
**Result** ≥ 50%

**Query** What value of remaining binding at 0.1 µM has been reported for the following molecule? COc1cc(C(=O)N2CCOCC2)c(F)cc1Nc1ncc(C(F)(F)F)c(-c2cnn(C)c2)n1
**Result** < 10%

**Query** What value of remaining binding at 0.1 µM has been reported for the following molecule? COc1cc(C(=O)N2CCOCC2)ccc1Nc1ncc(Cl)c(-c2cnn(CCO)c2)n1
**Result** < 30%

**Query** What value of remaining binding at 0.1 µM has been reported for the following molecule? COc1cc(C(=O)N2CCOCC2)ccc1Nc1ncc(Cl)c(-c2cn[nH]c2)n1
**Result** < 30%

**Query** What value of remaining binding at 0.1 µM has been reported for the following molecule? COc1cc(C(=O)N2CCN(C3COC3)CC2)ccc1Nc1ncc(Cl)c(-c2cnn(C)c2)n1
**Result** < 10%

**Query** What value of remaining binding at 0.1 µM has been reported for the following molecule? COc1cc(C(=O)N2CCOCC2)ccc1Nc1ncc(Cl)c(-c2cnn(C(C)(C)CC#N)c2)n1
**Result** < 10%

**Query** What value of remaining binding at 0.1 µM has been reported for the following molecule? COc1cc(C(=O)N2CCN(C(C)C)CC2)ccc1Nc1ncc(C(F)(F)F)c(-c2cnn(C)c2)n1
**Result** < 30%

**Query** What value of remaining binding at 0.1 µM has been reported for the following molecule? COc1cc(C(=O)N2CCC3(CC2)COC3)ccc1Nc1ncc(Cl)c(-c2cnn(C3CCOCC3)c2)n1
**Result** < 10%

**Query** What value of remaining binding at 0.1 µM has been reported for the following molecule? COc1cc(C(=O)NC2CCN(C)CC2)ccc1Nc1ncc(Cl)c(-c2cnn(C)c2)n1
**Result** < 10%

**Query** What value of remaining binding at 0.1 µM has been reported for the following molecule? COc1cc(C(=O)NC(C)(C)CO)ccc1Nc1ncc(Cl)c(-c2cnn(C)c2)n1
**Result** < 50%

**Query** What value of remaining binding at 0.1 µM has been reported for the following molecule? COc1ccc(Cn2cc(-c3nc(Nc4ccc(C(=O)N5CCOCC5)cc4OC)ncc3Cl)cn2)cc1
**Result** < 50%

**Query** What value of remaining binding at 0.1 µM has been reported for the following molecule? COc1cc(C(=O)N2CCC3(CC2)COC3)ccc1Nc1ncc(Cl)c(-c2cnn(C)c2)n1
**Result** < 30%

**Query** What value of remaining binding at 0.1 µM has been reported for the following molecule? COc1cc(C(=O)NCC(C)(C)O)ccc1Nc1ncc(Cl)c(-c2cnn(C)c2)n1
**Result** < 50%

**Query** What value of remaining binding at 0.1 µM has been reported for the following molecule? COc1cc(C(=O)N2CCOCC2)ccc1Nc1ncc(Cl)c(-c2cnn(C3CCOCC3)c2)n1
**Result** < 10%

* * *

I'd be grateful if you could share measured remaining binding at 0.01 µM for these entries.
target: wild-type LRRK2 (Homo sapiens, UniProt Q5S007); construct: DNA tag for qPCR detection (not a peptide; the protein part that carries it is not described); made in house; host or cells: HEK 293 cells (the same paragraph also describes T7 phage grown in E. coli BL21); assay: Inhibitory activity against LRRK2: competition binding to ligand-affinity beads, DNA-tagged kinase quantitated by qPCR; details: 10 nM compound; % of ctrl; read-out: LRRK2(WT) Remaining kinase activity(%) at 10 nM
Sequence (Q5S007 970-2527): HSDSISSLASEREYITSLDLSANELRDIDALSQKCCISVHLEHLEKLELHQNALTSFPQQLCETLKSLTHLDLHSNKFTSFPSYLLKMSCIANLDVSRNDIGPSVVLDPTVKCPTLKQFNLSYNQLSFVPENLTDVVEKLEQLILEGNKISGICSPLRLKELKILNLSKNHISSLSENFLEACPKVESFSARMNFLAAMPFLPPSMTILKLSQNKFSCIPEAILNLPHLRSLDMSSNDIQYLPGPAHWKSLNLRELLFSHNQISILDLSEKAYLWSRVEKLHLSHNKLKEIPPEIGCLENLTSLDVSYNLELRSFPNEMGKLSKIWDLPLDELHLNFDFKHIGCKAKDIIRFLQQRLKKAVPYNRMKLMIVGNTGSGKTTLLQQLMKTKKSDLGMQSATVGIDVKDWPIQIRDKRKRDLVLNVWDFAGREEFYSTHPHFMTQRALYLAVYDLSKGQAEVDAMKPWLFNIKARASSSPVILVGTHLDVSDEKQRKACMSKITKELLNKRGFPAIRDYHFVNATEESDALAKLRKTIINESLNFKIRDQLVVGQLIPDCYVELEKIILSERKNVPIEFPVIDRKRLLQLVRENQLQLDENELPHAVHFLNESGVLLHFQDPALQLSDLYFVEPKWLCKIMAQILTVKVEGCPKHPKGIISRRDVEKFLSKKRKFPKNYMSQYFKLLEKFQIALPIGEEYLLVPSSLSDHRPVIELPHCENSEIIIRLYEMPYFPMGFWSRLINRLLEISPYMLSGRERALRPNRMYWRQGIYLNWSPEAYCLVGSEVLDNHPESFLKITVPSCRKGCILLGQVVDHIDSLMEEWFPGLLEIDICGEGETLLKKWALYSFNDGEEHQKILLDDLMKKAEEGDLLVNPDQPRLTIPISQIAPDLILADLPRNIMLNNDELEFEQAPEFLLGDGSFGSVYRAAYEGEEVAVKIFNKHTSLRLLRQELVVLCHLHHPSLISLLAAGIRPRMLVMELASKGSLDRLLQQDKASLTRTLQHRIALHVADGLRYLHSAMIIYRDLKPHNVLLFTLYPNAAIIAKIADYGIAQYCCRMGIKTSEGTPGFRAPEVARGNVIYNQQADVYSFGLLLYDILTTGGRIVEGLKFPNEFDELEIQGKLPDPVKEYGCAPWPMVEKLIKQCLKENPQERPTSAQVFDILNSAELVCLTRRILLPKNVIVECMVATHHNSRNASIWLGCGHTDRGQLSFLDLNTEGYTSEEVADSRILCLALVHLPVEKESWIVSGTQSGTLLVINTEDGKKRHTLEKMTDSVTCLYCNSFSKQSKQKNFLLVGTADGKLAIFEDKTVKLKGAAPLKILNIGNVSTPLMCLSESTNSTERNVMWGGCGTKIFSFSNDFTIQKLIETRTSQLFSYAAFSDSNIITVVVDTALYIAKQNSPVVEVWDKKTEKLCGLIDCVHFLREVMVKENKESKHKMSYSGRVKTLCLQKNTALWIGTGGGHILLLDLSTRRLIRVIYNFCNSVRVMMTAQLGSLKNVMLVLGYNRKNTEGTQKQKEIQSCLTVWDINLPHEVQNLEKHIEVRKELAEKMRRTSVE

**Query** What value of remaining binding at 0.01 µM has been reported for the following compound? COc1cc(C(=O)Nc2ccc(N(C)C)cc2)ccc1Nc1ncc(Cl)c(-c2cnn(C(C)C)c2)n1 [Compound 127]
**Result** < 50%

**Query** What value of remaining binding at 0.01 µM has been reported for the following compound? COc1cc(C(=O)N2CCC(N(C)C)CC2)c(F)cc1Nc1ncc(Cl)c(-c2cnn(C(C)C)c2)n1 [Compound 110]
**Result** < 50%

**Query** What value of remaining binding at 0.01 µM has been reported for the following compound? COc1cc(C(=O)N(C)CCO)ccc1Nc1ncc(Cl)c(-c2cnn(C(C)C)c2)n1 [Compound 141]
**Result** ≥ 50%

**Query** What value of remaining binding at 0.01 µM has been reported for the following compound? COC(=O)[C@@H]1CCCN1C(=O)c1ccc(Nc2ncc(Cl)c(-c3cnn(C(C)C)c3)n2)c(OC)c1 [Compound 200]
**Result** ≥ 50%
